Parameter T/C: see the listing below.
tested on: L1210 leukemia ip in BDF1 mice, survival T/C; assay: NCI In Vivo Anticancer Drug Screen. Data for tumor model L1210 Leukemia (intraperitoneal) in B6D2F1 (BDF1) mice; conditions: endpoint: mean survival time; dose: 200.0 mg/kg/injection; schedule: Q01DX009 (ip); vehicle: Klucel (hydroxypropylcellulose) (HPC); higher = longer survival
Toxic doses and inconclusive results are not listed.

{"compound": "COc1cc(Cl)ccc1NC(=O)Oc1ccc(-c2ccccc2)cc1", "T/C": "94 % of control"}
{"compound": "N#Cc1ccncc1", "T/C": "93 % of control"}
{"compound": "Cc1cccc(C)c1NC(=O)C(Cl)c1ccccc1 (stereo unspecified)", "T/C": "91 % of control"}
{"compound": "Nc1cccc(CNC(=O)COc2cccc(Cl)c2)c1", "T/C": "120 % of control"}
{"compound": "C(=N\\C(/N=C/c1ccco1)c1ccco1)/c1ccco1", "T/C": "105 % of control"}
{"compound": "O=c1[nH]cc(Cl)cc1Cl", "T/C": "94 % of control"}
{"compound": "CCCCCCC(=O)/C=C/C=C/c1ccccc1", "T/C": "91 % of control"}
{"compound": "COC(=O)c1cccc(C)c1C(=O)c1ccccc1", "T/C": "96 % of control"}
{"compound": "Oc1ccc2ccccc2c1-c1c(O)ccc2ccccc12", "T/C": "94 % of control"}
{"compound": "CCCCCCCCCCCCCCCCCCNC(=O)Nc1cccc(C)c1C", "T/C": "89 % of control"}
{"compound": "CC(C)=CC(=O)NC(=O)NS(=O)(=O)c1ccc(Cl)cc1", "T/C": "98 % of control"}
{"compound": "O=C(Nc1ccc2c(c1)C(Br)c1ccccc1-2)C(F)(F)F (stereo unspecified)", "T/C": "93 % of control"}
{"compound": "CCN(CC)CCOC(=O)Nc1ccc(Cl)cc1", "T/C": "93 % of control"}
{"compound": "O=C1c2c(O)ccc([N+](=O)[O-])c2C(=O)c2c([N+](=O)[O-])ccc(O)c21", "T/C": "105 % of control"}
{"compound": "CC(C)=C1C2CCC1C(CO)C2CO (stereo unspecified)", "T/C": "102 % of control"}
{"compound": "Cc1nc2c(O)cccc2cc1CO", "T/C": "93 % of control"}
{"compound": "COc1cc(C(=O)Nc2ccc(F)cc2)cc(OC)c1OC", "T/C": "97 % of control"}
{"compound": "NC(=O)N/N=C1/CCSc2ccc3c(c21)CCCC3", "T/C": "104 % of control"}
{"compound": "O=c1ccc2cc3cc(I)c(O)c(I)c3oc-2c1I", "T/C": "99 % of control"}
{"compound": "CC1C(=O)OC(C)(C)OC1=O", "T/C": "94 % of control"}
{"compound": "Cc1ccc(CNC(=O)Nc2cccc(Cl)c2)cc1C", "T/C": "92 % of control"}
{"compound": "CCCCCCCCCCCCCCOc1ccc(Cl)cc1Cl", "T/C": "100 % of control"}
{"compound": "C1=NOC2c3ccc4ccccc4c3CCC12 (stereo unspecified)", "T/C": "93 % of control"}
{"compound": "Cc1ccc(Cl)cc1NC(=O)/C=C/c1ccccc1", "T/C": "104 % of control"}
{"compound": "BrC1CCCCCC(Br)C12OCCO2 (stereo unspecified)", "T/C": "98 % of control"}
{"compound": "COc1ccc(NC(=O)Oc2ccc(OC)cc2)cc1", "T/C": "95 % of control"}
{"compound": "COc1ccc(CC(N)C(=O)O)cc1 (stereo unspecified)", "T/C": "92 % of control"}
{"compound": "CC1(C)C2(SCCS2)C(C)(C)C12SCCS2", "T/C": "95 % of control"}
{"compound": "CCOC(CCc1c(-c2ccccc2)nc(NC(C)=O)[nH]c1=O)OCC", "T/C": "100 % of control"}
{"compound": "Cc1cc(C)c(S(=O)(=O)c2c(C)cc(C)c([N+](=O)[O-])c2C)c(C)c1[N+](=O)[O-]", "T/C": "88 % of control"}
{"compound": "OCC1=C(CO)C2(Cl)C(Cl)=C(Cl)C1(Cl)C2(Cl)Cl", "T/C": "105 % of control"}
{"compound": "Nc1[nH][nH]c(=O)c1N", "T/C": "100 % of control"}
{"compound": "O=C(NCCCCCCNC(=O)Nc1cccc2ccccc12)Nc1cccc2ccccc12", "T/C": "103 % of control"}
{"compound": "Cc1c(S(=O)(=O)F)ccc(O)c1[N+](=O)[O-]", "T/C": "104 % of control"}
{"compound": "COc1cc([N+](=O)[O-])ccc1NC(=O)Nc1cc(C)ccn1", "T/C": "93 % of control"}
{"compound": "O=C(Nc1ccc(Cl)c(Cl)c1)Oc1ccc(Cl)cc1C(=O)Nc1ccccc1", "T/C": "100 % of control"}
{"compound": "COc1ccc(NC(=O)Nc2ccc(C)c(C)c2)cc1", "T/C": "91 % of control"}
{"compound": "COc1ccc(CCC(C)=O)cc1", "T/C": "105 % of control"}
{"compound": "CCOC(=O)C(C#N)C(C)CC (stereo unspecified)", "T/C": "98 % of control"}
{"compound": "O=C(Cc1c(F)c(F)c(F)c(F)c1F)Nc1ccc(-c2nc3ccccc3s2)cc1", "T/C": "105 % of control"}
{"compound": "COc1ccccc1C(=O)N/N=C(\\C)c1cccc2ccccc12", "T/C": "110 % of control"}
